Record form. Attribute: cell viability. Fill in for each entry.
Tested on: Vero E6
assay.comment: cell viability relative to DMSO; higher = less toxic
cond: 72 h; 10 nM
Your answer is read as %, so omit the unit and give the number.

Exam item: // cell viability lookup, key: CC[N+](CC)(CC)CCC(O)(c1ccccc1)C1CCCCC1 (centres undefined)
Marked response: 93.6

Exam item: GET /values?readout=cell viability&item= NCC(=O)N1C[C@H](NC(=O)c2ccccc2)C[C@H]1C(=O)O [danegaptide]
Marked response: 101

Exam item: Item under review: Cc1ccc(S(=O)(=O)/C=C/C#N)cc1 . Reported cell viability?
Marked response: 94.4

Exam item: # input compound: CCS(=O)(=O)c1cccc(-c2cc(C(=O)NC3CCN(C)CC3)c(C)c3[nH]c4ncc(C)cc4c23)c1 ; wanted: its cell viability
Marked response: 100

Exam item: // returns reported cell viability for input C/N=C(/NC#N)NCCSCc1csc(NC(=N)N)n1
Marked response: 96.6

Exam item: Record request: cell viability value, item O=C(NCCN1CCN(c2ncccn2)CC1)C12CC3CC(CC(C3)C1)C2
Marked response: 97.9

Exam item: So what does the record say about cell viability for COc1ccc(-c2nc(C(=O)N3CCN(C)CC3)sc2-c2ccc(OC)cc2)cc1 ?
Marked response: 104

Exam item: Please report the recorded cell viability for O=C(O)[C@H]1O[C@@H](Oc2cc3oc(-c4ccccc4)cc(=O)c3c(O)c2O)[C@H](O)[C@@H](O)[C@@H]1O .
Marked response: 103

Exam item: Would you mind telling me what cell viability value was observed for COc1nccnc1NS(=O)(=O)c1ccc(N)cc1 ?
Marked response: 107

###

Tested on: HepG2
assay.comment: cell viability relative to DMSO; higher = less toxic
cond: 72 h; 10 nM
result.type: cell viability
Kindly format the answer as number then unit.

Exam item: // query cell viability value for entry CC(C)c1cc(CNc2nc(Nc3cc(C4CC4)[nH]n3)cc(N3CCN(C)CC3)n2)on1
Marked response: 98.3%

Exam item: Give its cell viability value. Item: CC(=O)OCC(=O)[C@@]1(O)CC[C@H]2[C@@H]3CCC4=CC(=O)CC[C@]4(C)[C@H]3[C@@H](O)C[C@@]21C [hydrocortisone-acetate]
Marked response: 105%

Exam item: Quick one: cell viability for OCCN(CCO)c1nc(N2CCCCC2)c2nc(N(CCO)CCO)nc(N3CCCCC3)c2n1 ?
Marked response: 101%

Exam item: # cell viability lookup, item CN1CCc2cc3c(cc2[C@H]1[C@@H]1OC(=O)c2c1ccc1c2OCO1)OCO3 [bicuculline-(+)]
Marked response: 98.3%

Exam item: Which cell viability value belongs to c1nc2c(NC3CCCCC3)nc(Nc3ccc(N4CCOCC4)cc3)nc2[nH]1 ?
Marked response: 89.9%

Exam item: Give its cell viability value. Item: O=C1C2CCN(CC2)C1(CO)CO
Marked response: 97.6%

Exam item: I have this compound here, O/N=C/c1ccc(-c2ccc(O)c(F)c2)c(Cl)c1O , and I need its recorded cell viability.
Marked response: 104%

Exam item: Look up cell viability: Cc1n[nH]c(C)c1Cc1sc2c(c1C(=O)N1C[C@H](O)CO1)c(=O)n(C)c(=O)n2CC(C)C
Marked response: 108%

Exam item: # query: cell viability of entry O=C(O)c1cc([N+](=O)[O-])ccc1NCCCc1ccccc1
Marked response: 101%

Exam item: Suppose we examine the compound CCCN(CCC)[C@H]1CCc2cccc(O)c2C1 [8-hydroxy-DPAT] ; what cell viability value has been reported?
Marked response: 102%

Exam item: So what's the measured cell viability for this one? COc1ccc(-c2nc(C(=O)N3CCN(C)CC3)sc2-c2ccc(OC)cc2)cc1
Marked response: 95.7%

Exam item: Reported cell viability, compound CCOc1ccc(Cc2cc([C@]34OC[C@](CO)(O3)[C@@H](O)[C@H](O)[C@H]4O)ccc2Cl)cc1 : ____
Marked response: 109%

Exam item: Any idea what its cell viability is? The compound is CO/N=C(\C(=O)N[C@@H]1C(=O)N2C(C(=O)O)=C(COC(N)=O)CS[C@H]12)c1ccco1 [CEFUROXIME SODIUM]
Marked response: 109%

Exam item: So what's the measured cell viability for this one? N[C@@H]1CCN(c2cccnc2)C1
Marked response: 99%

Exam item: Could you share which cell viability value was measured for CCOc1ccccc1N/N=C1/C(=O)N(c2nc(-c3ccccc3)cs2)N=C1C ?
Marked response: 96.2%

Exam item: Give the measured cell viability of O=C(O)CNC(=O)c1ccccc1I .
Marked response: 100%

Exam item: Using the record for CC(=O)OCC(=O)[C@@]1(O)CC[C@H]2[C@@H]3CCC4=CC(=O)C=C[C@]4(C)[C@@]3(F)[C@@H](O)C[C@@]21C [isoflupredone-acetate] , report its cell viability.
Marked response: 92.3%

Exam item: Sample COc1ccc(CNC(=O)Nc2ncc([N+](=O)[O-])s2)cc1 — what was its cell viability?
Marked response: 107%

###

Tested on: Vero E6
assay.comment: cell viability relative to DMSO; higher = less toxic
cond: 72 h; 1 nM
result.type: cell viability (%)
Express your answer in %, writing the number without its unit.

Exam item: Name the recorded cell viability for CCc1cc(/C(C)=N/OCc2ccc(C3CCCCC3)c(C(F)(F)F)c2)ccc1CN1CC(C(=O)O)C1 .
Marked response: 102

Exam item: cell viability lookup needed for CC(C)c1ccc2oc3nc(N)c(C(=O)O)cc3c(=O)c2c1 , thanks.
Marked response: 96.6

Exam item: Name the reported cell viability value associated with the molecule S=C(NC1CCCCC1)N1CCC(c2cnc[nH]2)CC1 [thioperamide]
Marked response: 103

Exam item: Sample Cc1cc(C)cc(NC(=O)Nc2ccc(OS(N)(=O)=O)cc2)c1 — what was its cell viability?
Marked response: 102

Exam item: Bench note: what cell viability did CC[C@]1(O)C[C@H]2CN(CCc3c([nH]c4ccccc34)[C@@](C(=O)OC)(c3cc4c(cc3OC)N(C=O)[C@H]3[C@@](O)(C(=O)OC)[C@H](OC(C)=O)[C@]5(CC)C=CCN6CC[C@]43[C@@H]65)C2)C1 [Vincristine (sulfate)] show?
Marked response: 98.9

Exam item: Any idea what its cell viability is? The molecule is C=CC(=O)Nc1cccc(Oc2nc(Nc3ccc(N4CCN(C)CC4)cc3)ncc2Cl)c1
Marked response: 104

###

System: HepG2
assay.comment: drug sensitivity score (DSS) for viability; higher = more toxic; extreme values may be limits of the assay
cond: 72 h
What drug sensitivity score was measured for each of the following?
Answer with the value's number alone.

Exam item: Could you tell me which drug sensitivity score is on file for Cc1nnsc1C(=O)Nc1ccc(-n2nc(C(F)(F)F)cc2C(F)(F)F)cc1 ?
Marked response: 0

Exam item: Give its drug sensitivity score value. Item: CCCSc1nc(N[C@@H]2C[C@H]2c2ccc(F)c(F)c2)c2nnn([C@@H]3C[C@H](OCCO)[C@@H](O)[C@H]3O)c2n1
Marked response: 0

Exam item: Can you look up the measured drug sensitivity score of CC[C@]1(O)C[C@H]2CN(CCc3c([nH]c4ccccc34)[C@@](C(=O)OC)(c3cc4c(cc3OC)N(C=O)[C@H]3[C@@](O)(C(=O)OC)[C@H](OC(C)=O)[C@]5(CC)C=CCN6CC[C@]43[C@@H]65)C2)C1 [Vincristine (sulfate)] for me?
Marked response: 24.3

Exam item: If you can, please state the reported drug sensitivity score value of OC[C@H]1O[C@@H](c2ccc(Cl)c(Cc3ccc(O[C@H]4CCOC4)cc3)c2)[C@H](O)[C@@H](O)[C@@H]1O .
Marked response: 0

Exam item: Entry under review: OCCCNc1ccccc1 . Reported drug sensitivity score?
Marked response: 0

Exam item: // lookup drug sensitivity score for C[C@H](N[C@@H](CCc1ccccc1)C(=O)O)C(=O)N1Cc2ccccc2C[C@H]1C(=O)O
Marked response: 0

Exam item: // lookup drug sensitivity score for CC(=O)OCC(=O)[C@@]1(O)CC[C@H]2[C@@H]3CCC4=CC(=O)C=C[C@]4(C)[C@@]3(F)[C@@H](O)C[C@@]21C [isoflupredone-acetate]
Marked response: 0

Exam item: # query: drug sensitivity score of entry COC(=O)Nc1nc2cc(C(=O)c3cccs3)ccc2[nH]1
Marked response: 13.3

Exam item: Fill in: drug sensitivity score of CCN(CC)C(=O)N1CCN(C)CC1 is ___
Marked response: 0

Exam item: For the compound C[C@H](NC(=O)Cc1cc(F)cc(F)c1)C(=O)N[C@@H]1C(=O)N(C)c2ccccc2-c2ccccc21 , what drug sensitivity score is on record?
Marked response: 0

Exam item: Using the record for CC(C)NCCCn1c(Sc2cc3c(cc2I)OCO3)nc2c(N)ncnc21 , report its drug sensitivity score.
Marked response: 20.8

Exam item: Query (compound): NCC(=O)N1C[C@H](NC(=O)c2ccccc2)C[C@H]1C(=O)O [danegaptide] ; field requested: drug sensitivity score
Marked response: 0

Exam item: Quick check: drug sensitivity score of N#CC(Cc1ccc(O)cc1)c1ccc(O)cc1 (centres undefined) ?
Marked response: 0

Exam item: Consider the compound CN1CCc2cc3c(cc2[C@H]1[C@@H]1OC(=O)c2c1ccc1c2OCO1)OCO3 [bicuculline-(+)] and give its measured drug sensitivity score.
Marked response: 0

Exam item: // query drug sensitivity score value for entry C=CCc1cc(OC)c(O)c(C(=O)NCCO)c1 [alibendol]
Marked response: 0

Exam item: Name the reported drug sensitivity score value associated with the compound CCSc1ccc2c(c1)N(CCCN1CCN(C)CC1)c1ccccc1S2
Marked response: 3.9

Exam item: Endpoint output: drug sensitivity score of O=c1ccc2cc3ccoc3cc2o1 . Value?
Marked response: 0

Exam item: Quick one: drug sensitivity score for N=C(N)c1ccc(/N=N/Nc2ccc(C(=N)N)cc2)cc1 [diminazene-aceturate] ?
Marked response: 4.2

Exam item: Look at this compound and give its reported drug sensitivity score. CCOC(=O)c1c(O)nc2cccc3c2c1-c1ccccc1C3=O
Marked response: 5

Exam item: Would you mind telling me what drug sensitivity score value was observed for C=C(c1ccccc1OCc1cccc(Cl)c1)n1ccnc1 ?
Marked response: 0

Exam item: Quick one: drug sensitivity score of C#C[C@]1(O)CC[C@H]2[C@@H]3CCc4cc(O)ccc4[C@H]3CC[C@@]21C ?
Marked response: 3

Exam item: Look up drug sensitivity score: CCN1CCN(C(=O)N[C@@H](C(=O)N[C@@H]2C(=O)N3[C@@H]2SC(C)(C)[C@@H]3C(=O)O)c2ccccc2)C(=O)C1=O
Marked response: 0

Exam item: Field request: drug sensitivity score | item: CNC[C@@H]1CC[C@@H](N)[C@@H](O[C@H]2[C@H](O)[C@@H](O[C@H]3OC[C@](C)(O)[C@H](NC)[C@H]3O)[C@H](N)C[C@@H]2N)O1
Marked response: 0

Exam item: Quick one: drug sensitivity score of CCC(=O)c1ccc(OCC(O)CN2CCN(c3ccccc3)CC2)cc1 (centres undefined) ?
Marked response: 0

Exam item: What value of drug sensitivity score has been recorded for this entry: COc1ccc(-n2nc(CCC(=O)N(C)O)cc2-c2ccc(Cl)cc2)cc1
Marked response: 1.6

Exam item: Record request: drug sensitivity score value, item CC(C)C(N)C(=O)O (stereo in doubt)
Marked response: 0

Exam item: May I ask what drug sensitivity score has been recorded for CC(CCc1ccccc1)NCC(O)c1ccc(O)c(C(N)=O)c1 (centres undefined) ?
Marked response: 0

Exam item: Recorded drug sensitivity score for CO[C@H]1CC[C@H](N2C(=O)CNc3ncc(-c4ccc(C(C)(C)O)nc4)nc32)CC1 , please?
Marked response: 4

Exam item: Value lookup for drug sensitivity score; key = CN1CCc2cc(Cl)c(O)cc2[C@@H](c2ccccc2)C1
Marked response: 0

Exam item: Recorded drug sensitivity score of CCC(=O)N1CCN(c2ccc(-n3c(=O)ccc4cnc5ccc(-c6cnc7ccccc7c6)cc5c43)cc2C(F)(F)F)CC1 , please.
Marked response: 9.8

Exam item: For O=C1C2CCN(CC2)C1(CO)CO , what is its reported drug sensitivity score?
Marked response: 0

Exam item: What value of drug sensitivity score has been reported for the following compound? CNCc1ccc(-c2cc(-c3nc(-c4ccc(S(=O)(=O)C(C)C)cc4)cnc3N)on2)cc1
Marked response: 10.1

Exam item: Value lookup for drug sensitivity score; key = O=C(c1cccc(Cl)c1F)N1CCN(Cc2cccc(Nc3nccs3)n2)CC1
Marked response: 8.7

Exam item: Entry under review: O=C(O)CCCCCCCC(=O)O . Reported drug sensitivity score?
Marked response: 0
